test: coupled detection enzyme interference, dose response, artefact control for MgcRacGAP inhibitor project, biochemical, coupled enzyme counter-screen (AID 624351); details: ADP Hunter coupled enzyme counter-screen, fluorescence, no MgcRacGAP; series mostly up to 80 µM;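 note: signal is the ADP detection kit reading of free GDP without any GAP enzyme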
In all, about 2,400 compounds went through this assay and about 1,400 (58%) were called active.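 Rule for the calls: active = inhibition of 30% or more at any tested dose; inconclusive = primary hits over the limit that were never retested; inactive = the rest.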 The set was probably picked from earlier hits. The list shows a part of the results.
// classify into true (active), false (inactive)

Returns: the outcome recorded for CC(C(=O)NCC(=O)Nc1ccc(F)c(F)c1F)N1CCN(c2ccc(O)cc2)CC1 (stereo not given) in this assay.
true

Returns: the outcome recorded for "CN1CCN(Cc2coc3c(Cl)cc(Cl)cc3c2=O)CC1" in this assay.
false

Returns: the outcome recorded for "Cc1cnc(NC(=O)CN2CCN(c3ccccc3F)CC2)s1" in this assay.
false

Returns: the outcome recorded for "C/C(=N\Nc1nc2ccccc2[nH]1)c1cccs1" in this assay.
true

Returns: the outcome recorded for "CC1(C)CC[C@]2(C(=O)n3ccnc3)CC[C@]3(C)[C@H](C(=O)C=C4[C@@]5(C)C=C(C#N)C(=O)C(C)(C)[C@@H]5CC[C@]43C)[C@@H]2C1" in this assay.
false

From: PubChem BioAssay AID624351
